pIC50: −log10 of the molar value.
# literature pull: UniProt Q9UKV0 pIC50

Would you please look over these solved cases?
{"Item Smiles": "Cn1cnc2c(NC3CCCCC3)nc(Nc3ccc(OCCCCCC(=O)NO)cc3)nc21", "pIC50": "< 4.00"}
{"Item Smiles": "Fc1ccc(C2(Nc3ncc(-c4nnc(C(F)F)o4)cn3)CC2)cc1", "pIC50": "< 4.52"}
{"Item Smiles": "Cn1cnc2c(NC3CCCCC3)nc(Nc3ccc(OCCCCCCC(=O)NO)cc3)nc21", "pIC50": "< 4.00"}

Query pIC50 on UniProt Q9UKV0 for `O=C(/C=C/c1ccc(CNCC23CC4CC(CC(C4)C2)C3)c(F)c1)NO`
< 4.30

Checklist item: pIC50 tested on UniProt Q9UKV0, entry `CN(c1ccccc1)S(=O)(=O)c1cccc(/C=C/C(=O)NO)c1` , value?
< 5.00
